Attribution: PubChem BioAssay (NCI)

Test system: MDA-MB-468 breast
assay_remarks: NCI tumour cell line growth inhibition, 48 h; in the data active = GI50 below about 0.43 µM; inactive = the rest
Write down one outcome, taken from 1 (active), -1 (inactive)

# example entries with known answers
CN(CCC#N)c1ccc(/C=C(\C#N)c2cccc(C(F)(F)F)c2)cc1	-1
Oc1c(C(Nc2cccc3ccccc23)c2ccccc2)ccc2cccnc12 (centres undefined)	-1
O=C(CCCn1c(=O)c2sc3ccccc3c2n2nnc(-c3ccccc3)c12)NCCc1cnc[nH]1	-1
Cc1oc2nc[nH]c(=O)c2c1C(=O)/C=C/c1ccc(Cl)cc1	-1
COc1ccc(C[n+]2c3ccccc3n3c4ccc(N)cc4ccc32)c(OC)c1OC	1
Cc1onc(-c2c(F)cccc2Cl)c1-c1ncc(-c2ccc(Cl)cc2)o1	-1
NC(=O)c1cc(-c2ccncc2)cc(-c2ccccc2)c1N	-1
O=C(Nc1ccc(F)cc1)c1cc(-c2ccc(F)cc2F)ccc1O	-1

Q: # outcome recorded in this test, key = IP(CCCCCCCCCCSc1n(Cc2ccc3ccccc3c2)c(-c2ccccc2)c(-c2ccccc2)[n+]1Cc1ccc2ccccc2c1)(c1ccccc1)(c1ccccc1)c1ccccc1
A: 1

====

Let's look at some compounds and their measured GI50.
Test system: MDA-MB-468 breast
assay_remarks: NCI tumour cell line growth inhibition, 48 h

CN(Cc1cnc(N)nc1N)c1ccc(C(=O)O)cc1	> 100000 nM
CN1CCN(c2ccc(-c3ccc4ncc(C#N)c(Nc5ccc(F)c(Cl)c5)c4c3)cc2)CC1	431 nM
COc1cc(-c2nn(-c3ccc(NC(=O)Nc4ccc(Cl)c(Cl)c4)cc3)cc2-c2ccncc2)ccc1Cl	2150 nM

Q: # get_value(readout='GI50', item= Cc1cc2cccnc2c2ncccc12 )
A: 2030 nM

====

Test system: MDA-MB-468 breast
assay_remarks: NCI tumour cell line growth inhibition, 48 h
measure_name: log10 of TGI (log10 of the value in µM)
Values reflect log10 of reported TGI (µM).

O=C(/C=C1\C(=O)N(Cc2ccc([N+](=O)[O-])cc2)c2ccccc21)c1ccc(OCCN2CCCCC2)cc1	0.40

Q: Look up log10 of TGI with MDA-MB-468 breast for this compound: COc1cccc(C(=O)Nc2ccc(CN3CCc4nc5cc(OC)c(OC)cc5cc43)cc2)c1
A: 1.50

Q: Missing value: log10 of TGI, MDA-MB-468 breast, entry COc1cc(-c2n/c(=C\c3c(O)[nH]c4ccc(Cl)cc34)cc3c2=Nc2ccccc2-3)cc(OC)c1OC . Fill in?
A: 0.63

Q: Checklist item: log10 of TGI tested on MDA-MB-468 breast, entry CN1CCN(CCCOc2cccc3nc(Nc4ccc(Cl)c(F)c4)ccc23)CC1 , value?
A: 0.52

Q: Look up log10 of TGI with MDA-MB-468 breast for this compound: COc1cc(/C=C/C(=O)c2cc(OC)c(OC)c(OC)c2)ccc1Oc1nc(NCCO)nc(N2CCOCC2)n1
A: 0.63

====

Test system: MDA-MB-468 breast
assay_remarks: NCI tumour cell line growth inhibition, 48 h
measure_name: TGI

NC(=O)c1cc(-c2ccncc2)cc(-c2ccccc2)c1N	> 25 µM
NC(C/[N+]([O-])=N/O)C(=O)O (stereo not drawn)	> 500 µM

// below: TGI requested for another compound
Q: Name the reported TGI value associated with the compound COc1ccc(-c2nn(-c3ccc(NC(=O)c4ccc(Cl)c(C(F)(F)F)c4)cc3)cc2-c2ccncc2)cc1Cl
A: > 100 µM
